- test-system: T1, human ROR2 (receptor tyrosine kinase-like orphan receptor 2) (human, UniProt Q01974 34-403, limits assumed)
- T1 construct: Antigen of the ELISA, SPR and pH titration assays; also called hROR2
- T1 sequence (Q01974 34-403 limits assumed): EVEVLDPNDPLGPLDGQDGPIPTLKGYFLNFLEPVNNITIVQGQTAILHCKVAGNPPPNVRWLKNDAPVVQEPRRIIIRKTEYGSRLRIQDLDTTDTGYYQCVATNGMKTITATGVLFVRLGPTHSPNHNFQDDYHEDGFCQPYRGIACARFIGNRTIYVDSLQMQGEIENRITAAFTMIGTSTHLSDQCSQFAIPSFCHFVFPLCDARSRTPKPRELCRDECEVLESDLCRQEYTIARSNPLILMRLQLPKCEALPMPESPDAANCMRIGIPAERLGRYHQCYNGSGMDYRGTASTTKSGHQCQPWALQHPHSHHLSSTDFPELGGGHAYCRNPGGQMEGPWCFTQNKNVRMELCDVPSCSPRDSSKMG
- assay-comment: affinity ELISA on human ROR2, pH 7.4
- Set-up: unit not given here
assay-endpoint: Affinity ELISA, pH 7.4

INSERT INTO assay_data (binder, assay_endpoint, reading) VALUES
  ('LC-G049H (antibody, V domains shown, CPE single point mutant of parent VL 48.6-LC-WT) VH: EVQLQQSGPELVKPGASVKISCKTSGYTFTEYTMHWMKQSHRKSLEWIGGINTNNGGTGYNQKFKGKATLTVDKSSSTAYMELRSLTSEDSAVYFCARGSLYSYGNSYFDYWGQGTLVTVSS VL: QIVLTQSPAIMSASPGEKVTITCSATSSVSYMHWFQQKPGTSPKLWIYHTSNLASGVPARFSGSGSGTSYSLTISRMEAEDAATYYCQQRSSYPFTFGQGTKVEIK', 'Affinity ELISA, pH 7.4', 0.118),
  ('LC-S092V (antibody, V domains shown, CPE single point mutant of parent VL 48.6-LC-WT) VH: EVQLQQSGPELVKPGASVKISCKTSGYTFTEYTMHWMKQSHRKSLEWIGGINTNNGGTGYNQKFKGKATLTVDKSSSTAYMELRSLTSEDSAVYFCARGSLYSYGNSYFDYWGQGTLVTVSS VL: QIVLTQSPAIMSASPGEKVTITCSATSSVSYMHWFQQKPGTSPKLWIYGTSNLASGVPARFSGSGSGTSYSLTISRMEAEDAATYYCQQRSVYPFTFGQGTKVEIK', 'Affinity ELISA, pH 7.4', 1.18),
  ('LC-G049P (antibody, V domains shown, CPE single point mutant of parent VL 48.6-LC-WT) VH: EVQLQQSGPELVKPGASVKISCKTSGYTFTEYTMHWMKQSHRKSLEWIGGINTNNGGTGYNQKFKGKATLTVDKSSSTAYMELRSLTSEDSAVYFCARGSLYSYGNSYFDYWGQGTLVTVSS VL: QIVLTQSPAIMSASPGEKVTITCSATSSVSYMHWFQQKPGTSPKLWIYPTSNLASGVPARFSGSGSGTSYSLTISRMEAEDAATYYCQQRSSYPFTFGQGTKVEIK', 'Affinity ELISA, pH 7.4', 0.268),
  ('LC-T096D (antibody, V domains shown, CPE single point mutant of parent VL 48.6-LC-WT) VH: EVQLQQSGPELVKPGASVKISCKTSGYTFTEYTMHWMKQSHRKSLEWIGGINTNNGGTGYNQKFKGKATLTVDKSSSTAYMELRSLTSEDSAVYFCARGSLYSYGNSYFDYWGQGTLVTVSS VL: QIVLTQSPAIMSASPGEKVTITCSATSSVSYMHWFQQKPGTSPKLWIYGTSNLASGVPARFSGSGSGTSYSLTISRMEAEDAATYYCQQRSSYPFDFGQGTKVEIK', 'Affinity ELISA, pH 7.4', 0.474),
  ('LC-Y031C (antibody, V domains shown, CPE single point mutant of parent VL 48.6-LC-WT) VH: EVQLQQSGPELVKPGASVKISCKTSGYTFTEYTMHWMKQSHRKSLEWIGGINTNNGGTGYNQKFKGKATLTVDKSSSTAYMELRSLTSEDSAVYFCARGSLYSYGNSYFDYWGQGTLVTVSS VL: QIVLTQSPAIMSASPGEKVTITCSATSSVSCMHWFQQKPGTSPKLWIYGTSNLASGVPARFSGSGSGTSYSLTISRMEAEDAATYYCQQRSSYPFTFGQGTKVEIK', 'Affinity ELISA, pH 7.4', 0.7);
